Test system: 786-0
Experimental Details: NCI tumour cell line growth inhibition, 48 h
Calls of active or inactive are those of the source. No stated cut-off is given here; in the data, active = GI50 up to about 1.1 µM and inactive = higher.
Measure: GI50

Record C=C1C(=O)OC2/C=C(\C=O)CC/C=C(\C)C(O)C[C@@H]12 (some centres undefined) has 786-0 GI50 equal to 2.85 µM (inactive)

So the reported GI50 for "COc1cc(/C=N/c2ccc(Oc3ccc(Cl)cc3)c(Cl)c2)cc(OC)c1OC" , on 786-0, turned out to be 13.6 µM (inactive)

Given the molecule "CCCSc1cc(Cl)c(C)cc1S(=O)(=O)n1ccnc1OCCCN(C)C" and test system 786-0, the measured GI50 is > 100 µM (inactive)

Result for "N=C(N)NS(=O)(=O)c1ccc(NC(=O)c2ccc3nc4ccccc4c(Nc4ccc(S(N)(=O)=O)cc4)c3c2)cc1" , tested on 786-0, GI50: > 100 µM (inactive)

Measured on 786-0, CSC(=O)C[C@@]12O[C@@H]([C@@H](C)C3CCC4[C@@H]5C(O)CC6=CC(=O)C=C[C@]6(C)C5CC[C@@]43C)C[C@](C)(O1)C(C)(C)O2 (some centres undefined) has a documented GI50 of 16.1 µM (inactive)

Given the molecule CC(Nc1cccc(Cl)c1)c1ccncc1 (centres undefined) and test system 786-0, the measured GI50 is > 100 µM (inactive)

The value of GI50 recorded for "O=C1c2ccccc2C(=O)c2c1ccc(C1C(=O)c3ccccc3C1=O)c2-c1c(C2C(=O)c3ccccc3C2=O)ccc2c1C(=O)c1ccccc1C2=O" when tested on 786-0 reads > 100 µM (inactive)

// molecule "CNc1nc(N)c(N=O)c(Nc2ccc(Br)cc2)n1" , assay 786-0, GI50 value: > 100 µM (inactive)

Log: 786-0, molecule "COc1ccc(-c2ccccc2)c(N/N=C2\CCCNC2=O)c1" , GI50 = 85.7 µM (inactive)

----------
Test system: SK-MEL-2
Experimental Details: NCI tumour cell line growth inhibition, 48 h
Active and inactive are the calls of the source. No stated cut-off is given here; in the data, active = GI50 up to about 1.1 µM and inactive = higher.
Measure: GI50

Note to self: GI50 recorded for "O=c1ccc(=O)c2c(=O)c3ccccc3c(=O)c1=2" was 20.8 µM (inactive)

The compound O=C1c2ccccc2C2(c3ccc(Cl)cc3)NCc3ccccc3CN12 (stereo unspecified) showed GI50 equal to 13.7 µM (inactive)

GI50 reported for this compound COc1ccc(C2CC(C)(O)Oc3cc4c(cc32)OCO4)cc1 (stereo unspecified) : 15.8 µM (inactive)

compound CC1OC(=O)C2CC3CCCCC3C(/C=C/C3CCCC(C)N3C)C12 (stereo unspecified) , GI50 observed: 83.2 µM (inactive)

Field GI50 (entry "COc1ccc(/C=C2\Sc3nnc(CNc4ccc(Cl)cc4)n3N=C2c2cc(F)c(Cl)cc2Cl)cc1OC" ) reads > 100 µM (inactive)

// sample "c1ccc(/N=C2/SC(c3ccccc3)(c3ccccc3)c3ccccc32)cc1" , its GI50 was > 100 µM (inactive)

Form field GI50, entry O=C1C2=C(c3ccccc31)C(c1ccccc1Cl)NC(S)=N2 (stereo unspecified) : 29.1 µM (inactive)

For record COc1ccc2c(c1)CN1C(=N2)CSC1c1cccc(Br)c1 (stereo unspecified) the listed GI50 is 24.2 µM (inactive)

The reported value for "NC1=Nc2ccccc2Sc2nncn21" in terms of GI50 is > 100 µM (inactive)

Per the records, this compound ( "N#[N+][c-]1c(-c2ccccc2)n[nH]c1=O" ) has GI50 equal to > 100 µM (inactive)

Data point: "COc1ccc2c(c1)C(=O)OCCC2" ; GI50 = > 100 µM (inactive)
